Origin of the recorded values: patent US7923465B2

Record form. Attribute: melting point. Fill in for each entry.
Answers are plain numbers, in °C.

O=C(NN1CCCCC1)c1nn(-c2ccc(F)cc2F)c2c1C1CC3CC(C1)CC2C3 = 215
O=C(NNc1ccc(F)cc1)c1nn(-c2ccc(Cl)cc2)c2c1C1CCC2C1 (centres unmarked) = 212
O=C(NC1CCCCC1)c1nn(-c2ccccc2)c2c1C1CCC2C1 (centres unmarked) = 107

Note: attention shifts to another entry.
Tell me its melting point given O=C(NNc1ccccc1)c1nn(-c2ccccc2Br)c2c1C1CCC2C1 (centres unmarked) as the entry.
219

* * *

- Measurement target: CB1 (Rattus norvegicus)
- Sequence (P20272 whole entry): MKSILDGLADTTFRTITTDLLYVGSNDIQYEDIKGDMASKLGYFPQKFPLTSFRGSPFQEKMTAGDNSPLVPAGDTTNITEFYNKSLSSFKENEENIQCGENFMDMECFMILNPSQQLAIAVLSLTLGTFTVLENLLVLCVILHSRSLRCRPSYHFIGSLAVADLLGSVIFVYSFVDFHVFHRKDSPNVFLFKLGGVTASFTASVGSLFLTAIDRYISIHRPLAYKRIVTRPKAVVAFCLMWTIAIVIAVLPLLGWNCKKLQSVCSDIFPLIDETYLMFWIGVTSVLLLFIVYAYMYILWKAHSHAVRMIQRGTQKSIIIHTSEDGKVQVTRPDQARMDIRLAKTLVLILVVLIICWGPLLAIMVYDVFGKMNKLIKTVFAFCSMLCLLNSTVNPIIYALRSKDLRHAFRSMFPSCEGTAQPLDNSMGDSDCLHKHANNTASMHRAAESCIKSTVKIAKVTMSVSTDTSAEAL
- Method: GTPγS binding assay, CB1 functional assay in rat cerebellar membrane (Protocol VIII)
- Format: biochemical
- Set-up: 10 μg rat cerebellum membrane; from tissue; host or cells: rat cerebellum membrane, prepared in-house
- Condition set: GTPγS binding, tested at 300 nM in presence of 1 μM WIN 55,212-2; read-out: % Inhibition of WIN-55212-2 induced stimulation
For each record, write down the corresponding inhibition at 0.3 µM.
One number for each entry, in %.

O=C(NNc1ncccc1Cl)c1nn(-c2ccc(Cl)cc2Cl)c2c1C1CCC2C1 (stereo not drawn) = 43.6
CC(C)(NC(=O)c1nn(-c2ccc(F)cc2F)c2c1C1CCC2C1)c1ccccc1 (stereo not drawn) = 9.8
C[C@@H](NC(=O)c1nn(-c2ccc(Cl)cc2Cl)c2c1C1CCC2C1)c1ccccc1 (stereo partly drawn) = 79.9
O=C(NNc1ncccc1Cl)c1nn(-c2ccc(Cl)cc2)c2c1C1CC3CC(C1)CC2C3 = 58.1
CC12CCC(C1)C(C)(C)C2NC(=O)c1nn(-c2ccc(Cl)cc2Cl)c2c1C1CCC2C1 (stereo not drawn) = 32.9

Look up inhibition at 0.3 µM for the entries below, preserving their order.
1. CC(C)(NC(=O)c1nn(-c2ccc(Cl)cc2)c2c1C1CC3CC(C1)CC2C3)c1ccccc1
2. O=C(NC12CC3CC(CC(C3)C1)C2)c1nn(-c2ccc(Cl)cc2Cl)c2c1C1CCC2C1 (stereo not drawn)
3. Cc1ccc(-n2nc(C(=O)NCc3ccccc3Cl)c3c2C2CC4CC(CC3C4)C2)cc1
4. C[C@H](NC(=O)c1nn(-c2ccc(Cl)cc2)c2c1C1CC3CC(C1)CC2C3)c1ccccc1

1: 38.9; 2: 22.9; 3: 72; 4: 55.7
